Values compiled from the Deep4Chem optical property database.

assay: photoluminescence quantum yield (fraction); solvent given as SMILES; settings: in CC(C)=O
propertyLabel: photoluminescence quantum yield
Give the figure by itself; no unit, no explanation.

Which value of photoluminescence quantum yield has been reported for `CN(C)c1ccc2nc(/C=C/c3ccccc3)c(=O)oc2c1` in the records? 0.71

Query `CC(=O)O[B-]1(OC(C)=O)OC(/C=C/c2ccc(C)cc2)=CC(/C=C/c2ccc(C)cc2)=[O+]1` next 0.58

Please give the result for `O=C1c2ccc3c4ccc5c6c(ccc(c7ccc(c2c37)C(=O)N1c1ccncc1)c64)C(=O)N(c1ccncc1)C5=O` too. 0.758

Please give the result for `CCOC(=O)/C(C#N)=C\c1ccc2c(c1)c1ccccc1n2-c1ccc(OC)cc1` too. 0.05

Continue with `CN(C)CCNCc1c2ccccc2cc2ccccc12` 0.0234
